Below: a set of entries, each annotated with reported Activity.
- Protocol Details: Permeability from apical to basolateral side of MDCK2 cell monolayer over expressing MDR1 assessed as drug concentration associated with cell at 5 uM after 1 hr of drug washout by methanol
- Settings: dog, mdck-ii, 1 h
Report as a plain number; the unit % is understood.

CCN(CC)C(=O)c1ccc(-c2c3ccc(=[N+](C)C)cc-3[se]c3cc(N(C)C)ccc23)s1.F[P-](F)(F)(F)(F)F    11
COc1ccc(-c2c3ccc(=[N+](C)C)cc-3sc3cc(N(C)C)ccc23)cc1OC.F[P-](F)(F)(F)(F)F    16
CN(C)c1ccc2c(-c3ccc(CCl)cc3)c3ccc(=[N+](C)C)cc-3oc2c1.[Br-] [TETRAMETHYLROSAMINE]    14.5

Incoming: Tell me its Activity given C[N+](C)=c1ccc2c(-c3ccccc3)c3cc4c5c(c3[se]c-2c1)CCCN5CCC4.F[P-](F)(F)(F)(F)F as the entry.
Outgoing: 32
